# Experimental System: His8-TEV-GABARAP (1 to 117) (human, UniProt O95166 1-117)
# Experiment Description: SPR
Endpoint Name: Kd (nM)
API: value field is a number in nM; no unit string.

Q: Supply recorded Kd for GST-PreScission-p62 FIR 4P (domain or fragment) MESDNCSGGDDDWTHLSSKEVDPETGELQSLQMPESEGPEELDPEQEGPTGLKEA here.
Ans: 670

Where do the numbers come from? From paper PMC10938568.
